- TARGET_OR_TEST_SYSTEM: HOD (WT HOD = HOD C69S); (1H)-3-hydroxy-4-oxoquinaldine 2,4-dioxygenase (Paenarthrobacter nitroguajacolicus, UniProt O31266, C69S)
- Construct: full-length HOD C69S in pQE30 (His-tag vector, Ni column); ~31 kDa monomer
- Sequence (O31266 whole entry C69S): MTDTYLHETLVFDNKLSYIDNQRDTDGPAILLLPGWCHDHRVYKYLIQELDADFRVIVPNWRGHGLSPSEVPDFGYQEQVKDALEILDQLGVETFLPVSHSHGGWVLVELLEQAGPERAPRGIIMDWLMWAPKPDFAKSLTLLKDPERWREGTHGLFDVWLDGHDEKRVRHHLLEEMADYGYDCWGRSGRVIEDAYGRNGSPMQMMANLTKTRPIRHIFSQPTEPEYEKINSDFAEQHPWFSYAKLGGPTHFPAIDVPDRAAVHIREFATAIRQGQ
- PROCEDURE_DETAILS: anaerobic stopped-flow, QND deprotonation at […] nm, kobs vs [QND] fit
ENDPOINT_LABEL: Kd

[[record]]
compound = "Cc1[nH]c2ccccc2c(=O)c1O [QND, (1H)-3-hydroxy-4-oxoquinaldine]"
reported_value = "214 µM"

